Test system: TK-10 renal
Assay: NCI tumour cell line growth inhibition, 48 h; in the data active means GI50 below about 0.43 µM; inactive means the rest
Outcomes you can answer with include only these: Yes = active, No = inactive

CN(C)C1CCN(Cc2ccc(NC(=O)c3cncc(C#Cc4cnc(N)c5ncccc45)c3)cc2C(F)(F)F)CC1; No
O=C(Cn1c(C(=O)c2ccc(Cl)cc2)nc(-c2ccc(Cl)cc2)c1-c1ccc(Cl)cc1)c1ccccc1; No
C/C(CCC(=O)O)=N/Nc1ccc([N+](=O)[O-])cc1; No
O=C(/C=C/C12c3ccccc3C(c3ccccc31)C1C(=O)N(c3ccc(Cl)cc3)C(=O)C12)c1ccccn1 (centres undefined); No
O=C(CN1CCN(Cc2ccccc2Cl)CC1)NC1CC(=O)c2c(Br)sc(Br)c21 (centres undefined); No

Give the logged outcome of this assay for the following compound: COc1cc2c3c(n(CCCN4CCNCC4)c(=O)c2cc1OC)-c1cc2c(cc1C3=O)OCO2
No

Give the logged outcome of this assay for the following compound: CCC(C)(C)c1cc(O)c(C(C)(C)CC)cc1O
No

Give the logged outcome of this assay for the following compound: COc1cc2c3c(n(CCCN(CCCN(CCCn4c5c(c6ccccc6c4=O)C(=O)c4ccccc4-5)C(=O)OC(C)(C)C)C(=O)OC(C)(C)C)c(=O)c2cc1OC)-c1cc2c(cc1C3=O)OCO2
No

Give the logged outcome of this assay for the following compound: NC(=O)c1cccc2c(N[C@H](CN3CCC3)c3ccc(Cl)c(C(F)(F)F)c3)ncnc12
Yes

====

Test system: SK-MEL-2 melanoma
Assay: NCI tumour cell line growth inhibition, 48 h
MEASURE: TGI (µM)
Answers are plain numbers, in µM.

CC(c1cc(Cl)ccc1O)c1cc(Cl)ccc1O; 7.23
CC(=O)OCC12CN(C#N)C3C4COC(CC41)C1(C(=O)N(C)c4ccccc41)C32 (centres undefined); 63.6
CC[C@@]1(O)C[C@H](OC2CC(N(C)C)C(O)C(C)O2)c2c(cc3c(c2O)C(=O)c2c(O)ccc(O)c2C3=O)[C@H]1C(=O)OC (some centres undefined); 0.354

Could you now look at the following compound, please?
What value of TGI has been reported for the following compound? CC1=C/C=C/C(=O)O[C@@H]([C@H](C)[C@H](O)[C@@H](C)NC(=O)C(C)C)[C@H](C)/C=C/C(C)=C/[C@H]2C=CCC[C@@]2(C)\C=C\1
20.4

====

Test system: A498 renal
Test: NCI tumour cell line growth inhibition, 48 h; in the data active = GI50 below about 0.43 µM; inactive = the rest
Outcomes you can answer with include only these: active, inactive

CC1(C)CC(=O)C=C(/C=C/Sc2c(Cl)c(Cl)nc(Cl)c2Cl)C1; inactive

Give the logged outcome of this assay for the following compound: COc1cc(OC)cc(Oc2cnc3cc(N)cc(N)c3n2)c1
inactive

Give the logged outcome of this assay for the following compound: C/C(CCC(=O)O)=N/Nc1ccc([N+](=O)[O-])cc1
inactive

Give the logged outcome of this assay for the following compound: NC(=O)c1cccc2c(N[C@H](CN3CCC3)c3ccc(Cl)c(C(F)(F)F)c3)ncnc12
active

Give the logged outcome of this assay for the following compound: COC(=O)c1cc(NC(=O)c2cc(NC(=O)c3cc([N+](=O)[O-])n(C)c3)cn2C)cn1C
inactive

Give the logged outcome of this assay for the following compound: O=C(CCCn1c2c(sc3ccccc32)c(=O)n2nnc(-c3ccccc3)c12)NCCc1cnc[nH]1
inactive

Give the logged outcome of this assay for the following compound: COC(=O)c1ccc2nc(-c3cc4ccccc4n3C)n(CCCCOc3cc4c(cc3OC)C(=O)N3CCC[C@H]3C=N4)c2c1
active

Give the logged outcome of this assay for the following compound: COc1ccc2c(c1)N(Cc1ccc(Cl)cc1)CCC2N1CCCC1=O (centres undefined)
inactive

Give the logged outcome of this assay for the following compound: CN1CCN(Cc2ccc(NC(=O)c3cncc(C#Cc4c(N)ncc5ccc(C#N)cc45)c3)cc2C(F)(F)F)CC1
inactive

Give the logged outcome of this assay for the following compound: O=C([O][Hg][c]1ccccc1)c1ccccc1
inactive

Give the logged outcome of this assay for the following compound: CCC(C)(C)c1cc(O)c(C(C)(C)CC)cc1O
inactive

Give the logged outcome of this assay for the following compound: CS(=O)(=O)N1CCC(n2c(=O)c(Oc3ccc(F)cc3F)cc3cnc(NC4CCOCC4)nc32)CC1
inactive

Give the logged outcome of this assay for the following compound: CCCCCCCCCCCCCC[n+]1ccccc1
inactive

Give the logged outcome of this assay for the following compound: O=C(CN1CCN(Cc2ccccc2Cl)CC1)NC1CC(=O)c2c(Br)sc(Br)c21 (centres undefined)
inactive
